experiment: protein stability index of a GFP-peptide fusion (GPS, HEK-293T) (PSI 1-6); higher = more stable; conditions: treatment: MLN4924 1 uM, 8 h; c terminus: a fixed tail appended;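 note: 24-mer peptide tiles fused after GFP, lentivirally expressed, FACS-sorted into six equal bins by GFP/DsRed ratio, decoded by Illumina sequencing, PSI is the read-weighted mean bin number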
Some sequences, each annotated with its measured protein stability index.
Give your answer as a number; write no unit.

Reference set, count: 3
KRDLLGALKYWKKAMNMRYSDRTN [FEM1C]
2.27
WFHAKSAELNKEVSTNTAMIQTSK [KRT13]
4.11
TFSLKTVLMIAIQLISRMEYVHSK [CSNK1G3]
3.16

Reported protein stability index of LANSWNCLPKHLLHSVNQRFGSNN [KLHDC2] : 2.3

Reported protein stability index of ASWYSLSKGMQDFNYLHTNCFEIT [CPN1] : 2.23

Reported protein stability index of LDLLLDMPPVSYDVQLLHSWNNND [SPSB1] : 2.65

Reported protein stability index of RSETFLEVWGNALLRPPVAAFVRA [DNAAF3] : 2.34

Reported protein stability index of VLNDRFQRQKYLSLQQMQELSNIL [NANOGP8] : 2.64

Reported protein stability index of QHLGEYENVLAALEGLNLSILKAM [NECAB1] : 2.38

Reported protein stability index of SMALTCTFNRWGTLLAVGCNDGRI [RBBP5] : 2.35

Reported protein stability index of HGHLILHSMHKYQPRIHLVRAAQL [TBX6] : 2.07

Reported protein stability index of GHGAEQAAAFPTEDSRTSKESMSE [EHMT1] : 5.19

Reported protein stability index of SEAWEYFHLAPARAGHHPNQYATC [ZBED2] : 2.58

Reported protein stability index of NSGTDQEQIHLLLSSQCFSNISRP [M1AP] : 3.18

Reported protein stability index of VEPKHCFTSPDYQQQCHEMAERLE [SDE2] : 4.83

Reported protein stability index of RTIRHVYCKTSDGRVVPESQCQME [ADAMTSL2] : 4.09

Reported protein stability index of ELNNCISMLVAGNDRVQTIITQLE [TRIM63] : 2.38

Reported protein stability index of MAAGTSSYWEDLRKQARQLENELD [GOSR1] : 3.99

Reported protein stability index of MADCILVNSQFTAAVFKETFKSLS [ALG2] : 2.73

Reported protein stability index of LSRYLIEPCGPGKSKLTYMCRVDL [DLC1] : 3.2

---

experiment: protein stability index of a GFP-peptide fusion (GPS, HEK-293T) (PSI 1-6); higher = more stable; details: treatment: MLN4924 1 uM, 8 h; c terminus: a fixed tail appended
Some sequences, each annotated with its measured protein stability index.
Give your answer as a number; write no unit.

SSCVKYLIFLSNFPFSLLGLLALA [TSPAN10]
2.93
VNDLAVGLRRLGLHRTEGELQKIV [SLC25A25]
3.02
VISKKAKVKVPQKTAGKENHFDMH [ZNF75A]
3.06
RPGGGRVKIESVKLDFKEKAQAKV [MAP2]
4.01

Now let's try a different one.
Reported protein stability index of RVHAGSKAALAALCPGDLIQAING [PDLIM4] : 3.03

---

test: protein stability index of a GFP-peptide fusion (GPS, HEK-293T) (PSI 1-6); higher = more stable; conditions: treatment: MLN4924 1 uM, 8 h; c terminus: a fixed tail appended
Some sequences, each annotated with its measured protein stability index.
Give your answer as a number; write no unit.

PSKVEVTEKTTTVLSESSGPSNTS [C2CD2L]
5.44
HPDSWRAYPFYWAWLPQAKVPFSQ [PI4K2A]
2.02
VLVLCVFNSILPGVLILFLTFFAF [SOAT1]
3.17
SDENGGTYVSPPGNEEEESKIFTT [DDIT3]
5.49

Reported protein stability index of NTVLRFLDLKGNNLRAAGAEALGK [LRRC45] : 3.28

Reported protein stability index of PPPPYEAVVSQMDQEQGSSFQMSE [FAM189A2] : 5.43

Reported protein stability index of EKCKEEFVEEIKKLATQHKQLISQ [ZMYND11] : 4.06

Reported protein stability index of SSSSSFGSGFGGGYGGGLGAGFGG [KRT16] : 2.89

Reported protein stability index of GIAHKIEAGNEFKNIFGTPEFVAP [DAPK3] : 3.64

Reported protein stability index of ISHRSTVASCMHRQETVDCLKKFN [CAMK2A] : 3.14

---

experiment: protein stability index of a GFP-peptide fusion (GPS, HEK-293T) (PSI 1-6); higher = more stable; details: treatment: MLN4924 1 uM, 8 h; c terminus: a fixed tail appended
Kind request: treat 4 as inclusive, so protein stability index at 4 or higher is T, anything lower is F.

AEVAPEERENVAVAKLQESQPGNA [SDE2]
T

Req: Evaluate AEMLGSVVGNWQYFFPVIFSKASS [MAGEA3] : protein stability index at minimum 4?
Resp: F

Req: Evaluate KIKRLRSQVQVSLEDYINDRQYDS [HNF4A] : protein stability index at minimum 4?
Resp: F

Req: Evaluate TLGKVLKVIVVMRSLFIDRTIVKG [MED27] : protein stability index at minimum 4?
Resp: F

Req: Evaluate RRCTNIRPGETGMDVTSRCTLGDP [KLHL20] : protein stability index at minimum 4?
Resp: T

Req: Evaluate PQTLIMAYDYAKEVNSAEELEGLI [FEM1C] : protein stability index at minimum 4?
Resp: F

Req: Evaluate FQFTDWPEQGVPKSGEGFIDFIGQ [PTPRD] : protein stability index at minimum 4?
Resp: F

Req: Evaluate SYPRTPHTPGTPKSAILVPSEKKV [MAP2] : protein stability index at minimum 4?
Resp: T
